Values were extracted from patent US9725445B2.

Can you tell me pIC50 for the items I'm about to list?
- study-target: JAK2 (Homo sapiens (Human))
- Sequence (O60674 849-1124): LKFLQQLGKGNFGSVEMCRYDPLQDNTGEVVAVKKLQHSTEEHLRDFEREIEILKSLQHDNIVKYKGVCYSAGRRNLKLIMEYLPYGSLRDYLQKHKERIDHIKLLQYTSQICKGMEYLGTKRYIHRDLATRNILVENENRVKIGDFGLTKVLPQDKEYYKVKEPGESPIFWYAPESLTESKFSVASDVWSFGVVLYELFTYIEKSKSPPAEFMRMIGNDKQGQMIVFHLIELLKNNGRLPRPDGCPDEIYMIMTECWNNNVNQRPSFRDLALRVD
- test-method-notes: Jak biochemical HTRF assay, JAK2
- condition: HTRF biochemical assay, recombinant GST-tagged catalytic domain; read-out: JAK2 IC50
Structures can show the parent of a compound that is named as a salt.
Answers are plain numbers, as −log10 of the molar value.

Here's what some known entries look like.
>  <molecule>
CN(C)S(=O)(=O)c1ccc(Nc2nn([C@H]3CCCC[C@@H]3C#N)c3cc[nH]c(=O)c23)cc1

>  <metric-name>
pIC50

>  <reported-result>
9.48

$$$$
>  <molecule>
N#C[C@H]1CCCC[C@@H]1n1nc(Nc2ccc(S(=O)(=O)NC3CCCCC3)cc2)c2c(=O)[nH]ccc21

>  <metric-name>
pIC50

>  <reported-result>
8.92

$$$$
>  <molecule>
N#C[C@H]1CCCC[C@@H]1n1nc(Nc2ccc(S(=O)(=O)N3CCOCC3)cc2)c2c(=O)[nH]ccc21

>  <metric-name>
pIC50

>  <reported-result>
9.33

$$$$
>  <molecule>
CN1Cc2cc(Nc3nn([C@H]4CCCC[C@@H]4C#N)c4cc[nH]c(=O)c34)ccc2S1(=O)=O

>  <metric-name>
pIC50

>  <reported-result>
9.54

$$$$
>  <molecule>
CC1c2cc(Nc3nn([C@H]4CCCC[C@@H]4C#N)c4cc[nH]c(=O)c34)ccc2S(=O)(=O)N1C (single isomer, unassigned) [Example 3-127]

>  <metric-name>
pIC50

>  <reported-result>
8.59

$$$$

Provide the reported pIC50 of each entry below, same order.
1. N#C[C@H]1CCCC[C@@H]1n1nc(Nc2ccc(C(=O)O)cc2)c2c(=O)[nH]ccc21 [Example 16-1, HCl]
2. CC1(C)Cc2cc(Nc3nn([C@H]4CCCC[C@@H]4C#N)c4cc[nH]c(=O)c34)ccc2S1(=O)=O

8.47
9.55
